EXPERIMENTAL_SYSTEM: DNA 5-C-methyltransferase (murine, Friend erythroleukemia cells) (Mus musculus, UniProt P13864 P13864:1-1620)
Sequence (P13864 whole entry, one chain of several): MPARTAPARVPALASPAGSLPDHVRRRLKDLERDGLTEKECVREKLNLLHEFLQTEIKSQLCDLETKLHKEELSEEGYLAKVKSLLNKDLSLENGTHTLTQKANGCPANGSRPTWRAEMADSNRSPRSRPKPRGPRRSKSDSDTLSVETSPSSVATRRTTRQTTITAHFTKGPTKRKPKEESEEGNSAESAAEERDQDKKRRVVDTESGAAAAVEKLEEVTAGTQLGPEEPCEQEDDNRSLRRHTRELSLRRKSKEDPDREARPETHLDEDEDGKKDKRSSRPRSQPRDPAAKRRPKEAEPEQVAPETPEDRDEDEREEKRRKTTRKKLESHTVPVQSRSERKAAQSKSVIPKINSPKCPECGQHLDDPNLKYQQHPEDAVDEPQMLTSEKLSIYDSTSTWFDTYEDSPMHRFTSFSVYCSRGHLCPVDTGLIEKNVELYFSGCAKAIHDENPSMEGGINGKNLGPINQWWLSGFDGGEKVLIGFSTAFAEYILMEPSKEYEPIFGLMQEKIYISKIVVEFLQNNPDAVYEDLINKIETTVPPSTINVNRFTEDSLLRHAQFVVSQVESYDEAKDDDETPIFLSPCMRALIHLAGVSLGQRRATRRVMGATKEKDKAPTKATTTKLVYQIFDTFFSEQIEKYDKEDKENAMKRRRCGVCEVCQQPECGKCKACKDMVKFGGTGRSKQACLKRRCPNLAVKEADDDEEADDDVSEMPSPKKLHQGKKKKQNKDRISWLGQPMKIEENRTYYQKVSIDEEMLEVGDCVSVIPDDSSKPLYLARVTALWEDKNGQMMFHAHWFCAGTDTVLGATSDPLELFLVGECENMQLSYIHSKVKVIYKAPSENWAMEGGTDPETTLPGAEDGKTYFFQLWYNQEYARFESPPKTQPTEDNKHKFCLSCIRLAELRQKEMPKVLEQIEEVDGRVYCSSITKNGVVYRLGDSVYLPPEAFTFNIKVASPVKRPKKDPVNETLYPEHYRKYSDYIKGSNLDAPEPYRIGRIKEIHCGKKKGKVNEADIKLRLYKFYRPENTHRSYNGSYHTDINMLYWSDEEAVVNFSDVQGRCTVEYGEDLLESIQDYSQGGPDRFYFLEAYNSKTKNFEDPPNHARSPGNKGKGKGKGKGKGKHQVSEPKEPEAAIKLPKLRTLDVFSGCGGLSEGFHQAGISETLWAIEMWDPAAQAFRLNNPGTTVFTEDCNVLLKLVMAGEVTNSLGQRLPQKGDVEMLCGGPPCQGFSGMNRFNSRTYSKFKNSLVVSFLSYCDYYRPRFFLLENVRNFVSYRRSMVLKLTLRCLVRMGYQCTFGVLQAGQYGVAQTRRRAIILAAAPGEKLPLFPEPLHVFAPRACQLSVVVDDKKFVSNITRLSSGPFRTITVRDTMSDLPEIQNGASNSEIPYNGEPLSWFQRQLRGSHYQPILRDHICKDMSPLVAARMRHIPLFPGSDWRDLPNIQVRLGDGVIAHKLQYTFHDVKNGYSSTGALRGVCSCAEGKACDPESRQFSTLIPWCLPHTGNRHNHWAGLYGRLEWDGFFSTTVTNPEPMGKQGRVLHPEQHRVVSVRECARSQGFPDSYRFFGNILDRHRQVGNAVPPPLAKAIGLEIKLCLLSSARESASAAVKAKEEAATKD
PROTOCOL_TEXT: methylation rate
PROTOCOL_CONDITIONS: protein: extract; tags: 0.3 M NaCl nuclear extract, 100,000 x g supernatant; single approx. 190 kDa species forming covalent complexes
Field: binding signal. Provide a value for each of the binders that follow.

q: binding signal for ATTGCGCATTCCGGATCCGCGATC (ssDNA, 5mC at 7; 5-fluoro-C at 20 [5mC at 7; 5-fluoro-C at 20]) [ASM7 F20] ?
a: 160 relative to A

q: binding signal for ATTGCGCATTCCGGATCCGCGATC (ssDNA, 5mC at 7,11,17; 5-fluoro-C at 12 [5mC at 7,11,17; 5-fluoro-C at 12]) [AMx F12] ?
a: 165 relative to A

q: binding signal for ATTGCGCATTCCGGATCCGCGATC (ssDNA, 5mC at 7,11,17; 5-fluoro-C at 20 [5mC at 7,11,17; 5-fluoro-C at 20]) [AMx F20] ?
a: 168 relative to A

q: binding signal for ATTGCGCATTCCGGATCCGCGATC (ssDNA, 5mC at 5; 5-fluoro-C at 20) [ASM5 F20] ?
a: 152 relative to A

q: binding signal for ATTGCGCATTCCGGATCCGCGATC (ssDNA, 5mC at 7,11,17; 5-fluoro-C at 5 [5mC at 7,11,17; 5-fluoro-C at 5]) [AMx F5] ?
a: 170 relative to A
